These measurements were taken from ChEMBL document CHEMBL1154658.

- experimentDescription: AUC in Sprague-Dawley rat at 30 mg/kg, po
- Format: ADME, organism-based
- Parameters: dose 30 mg/kg, route oral
- conditionDescription: plasma
observationType: AUC (µM·h)
Note: unit µM·h is implicit; provide only the numeric part.

The molecule listed as C=C[C@@H]1C[C@]1(NC(=O)[C@@H]1C[C@@H]2CN1C(=O)[C@H]([C@@H](C)CC)Nc1nc(cs1)CCC/C=C/c1cccc3c1CN(C3)C(=O)O2)C(=O)[N-]S(=O)(=O)C1CC1.[K+] has a reported AUC of 21

====

- experimentDescription: Drug level in Sprague-Dawley rat liver at 30 mg/kg, po after 24 hrs
- Type: ADME, organism-based
- Design: dose 30 mg/kg, route oral
- conditionDescription: read-out: Drug uptake
observationType: concentration at 24 h (nM)
Unit nM implied. Number only.

The reported concentration at 24 h of the molecule C=C[C@@H]1C[C@]1(NC(=O)[C@@H]1C[C@@H]2CN1C(=O)[C@H]([C@@H](C)CC)Nc1nc(cs1)CCC/C=C/c1cccc3c1CN(C3)C(=O)O2)C(=O)[N-]S(=O)(=O)C1CC1.[K+] was 60
